For each record, write down the corresponding BUN.
# Species: Rattus norvegicus
# protocol_details: Open TG-GATES - Regimen: Single
# Assay type: toxicity, organism-based, Sprague-Dawley
# Set-up: regimen Single, gender Male, age 6 weeks
# measurement_conditions: in vivo, po, 1000 mg/kg, 24 h, tissue Plasma, route gavage, dose level High
Enter your answer as a number in mg/dL; do not include the unit.

Bench note: what BUN did "O=C(O)c1cc(/N=N/c2ccc(S(=O)(=O)Nc3ccccn3)cc2)ccc1O" show?
13.8

Would you mind doing "O=C(O)c1cn(C2CC2)c2cc(N3CCNCC3)c(F)cc2c1=O" as well?
19.2

# iterate: "C[C@H](CS)C(=O)N1CCC[C@H]1C(=O)O"
16.8

Try CCc1cc(C(N)=S)ccn1 [ETHIONAMIDE] next.
13

---

# Species on record: Rattus norvegicus
# protocol_details: Open TG-GATES - Regimen: Single
# Type: toxicity, organism-based, Sprague-Dawley
# Design: regimen Single, gender Male, age 6 weeks
# measurement_conditions: in vivo, po, 1000 mg/kg, 24 h, tissue Blood, route gavage, dose level High
Simple rule here: Mono less than 5% is label 1, otherwise label 0.

Please indicate whether the reported Mono of "Clc1ccccc1CN1CCc2sccc2C1" is strictly below 5%.
label 1

Next record, please: "O=C(O)c1cc(/N=N/c2ccc(S(=O)(=O)Nc3ccccn3)cc2)ccc1O"
label 1

Now this one: "C[C@H](CS)C(=O)N1CCC[C@H]1C(=O)O"
label 0

Note, next up: "O=C(O)c1cn(C2CC2)c2cc(N3CCNCC3)c(F)cc2c1=O"
label 0

Try this molecule too: CCc1cc(C(N)=S)ccn1 [ETHIONAMIDE]
label 0

---

# Species on record: Rattus norvegicus
# protocol_details: Open TG-GATES - Regimen: Daily Repeat
# Assay type: toxicity, organism-based, Sprague-Dawley
# Set-up: regimen Daily Repeat, gender Male, age 6 weeks
# measurement_conditions: in vivo, po, 0 mg/kg, […], tissue Plasma, route gavage, dose level Control, time 28 day
property_name: Ca (mg/dL)
Write the answer as a number in mg/dL, unit excluded.

Bench note: what Ca did NC(=O)N1c2ccccc2C=Cc2ccccc21 [CARBAMAZEPINE] show?
10.3

Also "COc1ccc2c(c1)c(CC(=O)O)c(C)n2C(=O)c1ccc(Cl)cc1" ?
10.7

What do you have for "CC(=O)Oc1ccccc1C(=O)O" ?
10.1

Then this molecule: "Cn1c(=O)c2[nH]cnc2n(C)c1=O.O"
10.3

Also check "O=C(O)c1cn(C2CC2)c2cc(N3CCNCC3)c(F)cc2c1=O"
10.7

---

# Organism: Rattus norvegicus
# protocol_details: Open TG-GATES - Regimen: Single
# Format: toxicity, organism-based, Sprague-Dawley
# Set-up: regimen Single, gender Male, age 6 weeks
# measurement_conditions: in vivo, po, 0 mg/kg, 3 h, tissue Plasma, route gavage, dose level Control
Provide the reported PL of each item.
Write the answer as a number in mg/dL, unit excluded.

Which PL value is on record for Cn1c(=O)c2[nH]cnc2n(C)c1=O.O [THEOPHYLLINE] ?
135.8

Again, but for Clc1ccccc1CN1CCc2sccc2C1 [TICLOPIDINE]
142.4

Field entry: CN(C)CCC=C1c2ccccc2CCc2ccccc21 [AMITRIPTYLINE]
124.4

Next: NC(=O)N1c2ccccc2C=Cc2ccccc21 [CARBAMAZEPINE]
131.8

Now the same for CCc1cc(C(N)=S)ccn1 [ETHIONAMIDE]
152.2

Repeat with O=C(O)c1cc(/N=N/c2ccc(S(=O)(=O)Nc3ccccn3)cc2)ccc1O [SULFASALAZINE]
140.6

Note, next up: NC(=O)N/N=C/c1ccc([N+](=O)[O-])o1 [NITROFURAZONE]
141.8

Another compound to check: COc1ccc(Cc2nccc3cc(OC)c(OC)cc23)cc1OC [PAPAVERINE]
140.2

Repeat for the following compound: CC(=O)Oc1ccccc1C(=O)O [ASPIRIN]
138.4

Can you check C[C@H](CS)C(=O)N1CCC[C@H]1C(=O)O [CAPTOPRIL] next?
127.6

Now consider CSc1ccc2c(c1)N(CCC1CCCCN1C)c1ccccc1S2 (configuration not stated) [THIORIDAZINE] and answer again.
136.2

Follow-up item: O=C(O)c1cn(C2CC2)c2cc(N3CCNCC3)c(F)cc2c1=O [CIPROFLOXACIN]
130.8
